# Tested on: giant foxtail (Setaria faberii)
# PROTOCOL_DETAILS: Test A postemergence, visual injury rating
# Type: in vivo
# CONDITION_DETAILS: 31 g ai/ha, 0 to 100 scale, 0 is no effect, 100 is complete control, approximately 10 days
Recorded Foxtail, Giant plant response rating values for a group of molecules are listed next.
ENDPOINT_NAME: Foxtail, Giant plant response rating

molecule=O=C(CCC(F)(F)F)c1c(Br)cccc1Oc1ncc(Cl)cn1 obs_value=50
molecule=O=C(OCC(F)(F)C(F)(F)F)c1c(F)cccc1Oc1ncc(Cl)cn1 obs_value=0
molecule=O=C(CCCCC(F)(F)F)c1c(Br)cccc1Oc1ncc(Cl)cn1 obs_value=30
molecule=O=C(OCC(F)(F)C(F)F)c1c(Br)cccc1Oc1ncc(Cl)cn1 obs_value=10
molecule=O=C(OCCC(F)(F)F)c1cc(C(F)(F)F)ccc1Oc1ncc(Cl)cn1 obs_value=0
molecule="CCCC(C#N)c1c(Br)cccc1Oc1ncc(Cl)cn1 (stereo not drawn)" obs_value=0
molecule=O=C(OC(CCl)CCl)c1c(Br)cccc1Oc1ncc(Cl)cn1 obs_value=0
molecule=CC(C)COC(=O)c1c(Br)cccc1Oc1ncc(Cl)cn1 obs_value=30
molecule=CC(C)(C)CCOC(=O)c1c(Br)cccc1Oc1ncc(Cl)cn1 obs_value=0
